# assay_explanation: Quantitative High-Throughput drug screen in 47 multiple myeloma cell lines against the NCATS MIPE library collection: KMS11_JCRBsus cell viability assay (AID 1919873); also: nearly all actives have a fitted effect of over 50% in size
# measurement_parameters: KMS11 myeloma viability, CellTiter-Glo ATP luminescence, 48 h; series mostly up to 45.8 µM
Records with an inconclusive call do not appear. Active and inactive are the calls of the source. Calls follow the shape of the dose curve; as a rule, active = well fitted cell-killing curve with a large enough effect; inconclusive = small, poorly fitted or top-dose-only effect, or effect the other way; inactive = no such curve, though single readings can be large or run the other way.
Give your call using only these classes: t for active, f for inactive

# example entries with known answers
smiles_data	class_name
Cn1cc(-c2ccncc2)c(-c2ccc(OCc3ccc4ccccc4n3)cc2)n1	t
CC(=O)Nc1nc(C)c(-c2ccc(Cl)c(S(=O)(=O)NCCO)c2)s1	t

# fetch the recorded call for `CC(C)Nc1cc(C(F)(F)F)cc2nc(NC(=O)c3cccnc3)nn12` here
f

###

# assay_explanation: qHTS of pediatric cancer cell lines to identify multiple opportunities for drug repurposing: Primary screen for NB1643 cells (AID 1347099); also: nearly all actives have a fitted effect of over 50% in size
# measurement_parameters: NB1643 neuroblastoma viability, CellTiter-Glo luminescence, 48 h; series mostly up to 46 µM
Results filed as inconclusive are left out. Calls of active or inactive are those of the source. Calls follow the shape of the dose curve; as a rule, active = well fitted cell-killing curve with a large enough effect; inconclusive = small, poorly fitted or top-dose-only effect; inactive = no such curve, though single readings can be large or run the other way.
Can you answer with just one of these options? label 1 (active), label 0 (inactive)

compound	class_name
CC(C)(C)c1cc(C(C)(C)C)c(NC(=O)c2c[nH]c3ccccc3c2=O)cc1O	label 0
Cc1[nH]c2ccccc2c1CCNCc1ccc(C=CC(=O)NO)cc1	label 1
Cc1nc(Nc2n[nH]c3c2CN(C(=O)N[C@H](CN(C)C)c2ccccc2)C3(C)C)c2sccc2n1	label 1
Cc1cc(CN2CCN(c3c(Br)cnc4nc(-c5ccc(N6CCN(C)CC6)cc5)[nH]c34)CC2)no1	label 1
COc1cccc2nc(-c3cccs3)nc(NN3C(=O)C=C(C)C3=O)c12	label 1

Look up the recorded call for `CN1CCN(c2cc(C(=O)Nc3ccc4c(c3)-c3c(c(C(N)=O)nn3-c3ccc(F)cc3)CC4)c(Cl)cn2)CC1` in this test.
label 1

Also `COc1ccc2c(OCc3nnc4ccc(-c5ccccc5)nn34)ccnc2c1` ?
label 0

What about `c1nc2nc(Nc3ccc(N4CCOCC4)cc3)nc(NC3CCCCC3)c2[nH]1` ?
label 1

Now give it for CN(C1CCc2c(c3ccccc3n2CC(=O)O)C1)S(=O)(=O)c1ccc(F)cc1 (centres undefined) too.
label 1

Repeat with CCOc1ccccc1OCCNC(C)Cc1ccc(OC)c(S(N)(=O)=O)c1 (centres undefined)
label 0

Similarly, `CC(=O)Nc1nc(C)c(-c2ccc(Cl)c(S(=O)(=O)NCCO)c2)s1` ?
label 1

Ok, now `CN(C)Cc1c(C(=O)NCCOc2ccc(C(=O)NO)cc2)oc2ccccc12`
label 1

Likewise for `CNc1nccc(-c2cccnc2Oc2cc(C(=O)Nc3cccc(C(F)(F)F)c3)ccc2C)n1` ?
label 1

Param item: `COc1c(N2C[C@@H]3CCCN[C@H]3C2)c(F)cc2c(=O)c(C(=O)O)cn(C3CC3)c12`
label 0

###

# assay_explanation: Quantitative High-Throughput drug screen in 47 multiple myeloma cell lines against the NCATS MIPE library collection: PE2_PLB cell viability assay (AID 1919869); also: nearly all actives have a fitted effect of over 35% in size
# measurement_parameters: PE2_PLB myeloma cells viability, ATP luminescence, 48 h; series mostly up to 45.8 µM
Records with an inconclusive call do not appear. Calls of active or inactive are those of the source. The call rests on the fitted dose curve; in most records, active means well fitted cell-killing curve with a large enough effect; inconclusive means small, poorly fitted or top-dose-only effect, or effect the other way; inactive means no such curve, though single readings can be large or run the other way.
Your answer must be one of the following: Y for active, N for inactive

Before answering, review these 3 worked examples.
compound	class_name
CNC(=O)c1c(F)cccc1Nc1nc(Nc2cc3c(cc2OC)CCN3C(=O)CN(C)C)nc2[nH]ccc12	Y
COc1cc2c(Nc3ccc(NC(=O)c4ccccc4)cc3)ncnc2cc1OCCCN1CCOCC1	Y
COc1c(N2C[C@@H]3CCCN[C@H]3C2)c(F)cc2c(=O)c(C(=O)O)cn(C3CC3)c12	N

Which outcome did this test record for the compound O=C1CCC[C@@H]2[C@H]3CCC[N+]4([O-])CCC[C@@H](CN12)[C@@H]34 (stereo not given in full) ?
N

Also `COc1cc(=C2C=c3ccccc3=N2)[nH]c1=Cc1[nH]c(C)cc1C` , if possible.
Y

Cool, now `Cc1ccc(C(=O)Nc2ccc(CN3CCN(C)CC3)c(C(F)(F)F)c2)cc1C#Cc1cnc2cccnn12`
Y

Then `CCNC(=O)Nc1ccc2ncc(Nc3ccc(C)cc3)nc2n1` ?
Y

Another compound to look at: `C[C@H]1C[C@@H]2[C@@H]([C@@H](O)C[C@@]3(C)[C@H]2CC[C@]3(O)C(=O)CO)[C@@]2(C)C=CC(=O)C=C12`
N

And then `CCN(CC)CCNC(=O)c1ccc2nc(-c3ccccc3)c(-c3ccc(CN4CCC(n5c(=O)[nH]c6ccccc65)CC4)cc3)nc2c1` , what is it?
Y

Next record, please: `Cc1nc(N)ncc1-c1nc(N2CCOCC2)c2sc(C(C)(C)O)cc2n1`
Y
